- Tested on: Mus musculus
- experiment.description: Antimalarial activity was evaluated against Plasmodium vinckei V52 after intraperitoneal administration at dose 50 mg/kg
- Type: functional
measured.property: Cured (%)
Hi! Could you send only the number? It should be in %, unit omitted.

Give its Cured value. Item: Cn1c(=O)nc2n(-c3cccc(F)c3)c3ccccc3nc-2c1=O
20

Fill blank: measured Cured of the compound Cc1ccc(-n2c3nc(=O)n(C)c(=O)c-3nc3ccccc32)cc1 is ____.
0

Return reported Cured; argument: Cc1cccc(-n2c3nc(=O)n(C)c(=O)c-3nc3ccccc32)c1
0

Give the measured Cured of Cn1c(=O)nc2n(-c3ccccc3)c3ccccc3nc-2c1=O .
0

Any idea what Cured was measured for COc1ccc(-n2c3nc(=O)n(C)c(=O)c-3nc3ccccc32)cc1 ?
80

Entry Cn1c(=O)nc2n(-c3ccc(F)cc3)c3ccccc3nc-2c1=O : reported Cured = ?
20

What value of Cured has been recorded for this entry: Cn1c(=O)nc2n(-c3cccc(Cl)c3)c3ccccc3nc-2c1=O
0

What does the record list as Cured for Cc1cc(-n2c3nc(=O)n(C)c(=O)c-3nc3ccccc32)ccc1Cl ?
25

Param item = Cn1c(=O)nc2n(-c3ccc(C(F)(F)F)cc3)c3ccccc3nc-2c1=O ; retrieve measured Cured.
100

Query: Cured; subject: Cn1c(=O)nc2n(-c3ccc(S(C)(=O)=O)cc3)c3ccccc3nc-2c1=O
0

###

Kindly supply the reported ED40 values for the records listed here.
- Species on record: Mus musculus
- experiment.description: Effective dose required to obtain a parasitaemia of 40% 48 hours after treatment in mice
- Format: functional
Answer with a number only, understood to be in µmol/kg.

Given Cn1c(=O)nc2n(-c3ccc(Cl)cc3)c3ccccc3nc-2c1=O , state its recorded ED40.
38.8

// lookup ED40 for Cc1cc(-n2c3nc(=O)n(C)c(=O)c-3nc3ccccc32)ccc1Cl
182

Reported ED40 for COc1cc(OC)cc(-n2c3nc(=O)n(C)c(=O)c-3nc3ccccc32)c1 : what is it?
219

Sample Cn1c(=O)nc2n(-c3ccc(C(F)(F)F)cc3)c3ccccc3nc-2c1=O — what was its ED40?
135

Suppose we examine the molecule Cn1c(=O)nc2n(-c3ccc(Br)cc3)c3ccccc3nc-2c1=O ; what ED40 value has been reported?
38.4

What value of measured ED40 is listed for Cc1cc(C)cc(-n2c3nc(=O)n(C)c(=O)c-3nc3ccccc32)c1 ?
105

Requested read-out: ED40. Entry: Cc1cc(Cl)cc(-n2c3nc(=O)n(C)c(=O)c-3nc3ccccc32)c1
85.7

Returns the measured ED40 for the input molecule. Input: CCc1ccc(-n2c3nc(=O)n(C)c(=O)c-3nc3ccccc32)cc1
281

Fill in the blank: the reported ED40 of Cn1c(=O)nc2n(-c3cc(Cl)cc(Cl)c3)c3ccccc3nc-2c1=O is ____.
40.2

For the molecule shown here, COc1ccc(-n2c3nc(=O)n(C)c(=O)c-3nc3ccccc32)cc1 , give the reported ED40.
138

###

- System: Mus musculus
- experiment.description: Increase in mean survival days was determined in mice after ip administration of 40 mg/kg
- Assay type: functional
- protocol.conditions: route intraperitoneal
So I've got a bunch of molecules here, and I need their Mean survival days values.
Only the number, expressed in days, is required.

Suppose we examine the molecule Cn1c(=O)nc2n(-c3ccc(S(C)(=O)=O)cc3)c3ccccc3nc-2c1=O ; what Mean survival days value has been reported?
-0.5

Quick one: Mean survival days for Cn1c(=O)nc2n(-c3ccc(F)cc3)c3ccccc3nc-2c1=O ?
0

# query: Mean survival days of entry Cn1c(=O)nc2n(-c3cccc(F)c3)c3ccccc3nc-2c1=O
0.8

Could you share which Mean survival days value was measured for Cn1c(=O)nc2n(-c3cccc(Br)c3)c3ccccc3nc-2c1=O ?
0

Consider the molecule shown here: Cc1cc(-n2c3nc(=O)n(C)c(=O)c-3nc3ccccc32)ccc1Cl What is its recorded Mean survival days?
0.3

# query: Mean survival days of entry COc1ccc(-n2c3nc(=O)n(C)c(=O)c-3nc3ccccc32)cc1
1
